test system: Serratia marcescens clinical strains; assay type: cell-based; design: unit: μg/ml; details: Serratia marcescens clinical strain 4; microdilution, Muller Hinton broth-cation adjusted, 0.02% BSA, 0.2% acetic acid
Square brackets hold non-standard residues; d marks the D form. Peptide text beside a SMILES is read from it.
Please respond with reported Minimum inhibitory concentration for every item in the list.

[
  {
    "compound": "CC[C@@H](C)[C@@H](NC(=O)[C@@H](Cc1c[nH]c2ccccc12)NC(=O)[C@H](N)CCCCN)C(=O)N[C@@H](C(=O)N[C@H](Cc1c[nH]c2ccccc12)C(=O)N[C@H](CCCNC(=N)N)C(=O)N[C@H](Cc1c[nH]c2ccccc12)C(=O)N[C@H](CCCNC(=N)N)C(=O)N[C@H](Cc1ccccc1)C(=O)N[C@H](CCCCN)C(=O)N[C@H](CCCNC(=N)N)C(=O)O)C(C)C [Chain201D] (H-[dK][dW][dI][dV][dW][dR][dW][dR][dF][dK][dR]-OH)",
    "Minimum inhibitory concentration": 64
  },
  {
    "compound": "CC[C@@H](C)[C@@H](NC(=O)[C@@H](CC(C)C)NC(=O)[C@@H](CCCNC(=N)N)NC(=O)[C@H](N)CCCNC(=N)N)C(=O)N[C@H](Cc1c[nH]c2ccccc12)C(=O)N[C@H](CCCNC(=N)N)C(=O)N[C@H](CCCNC(=N)N)C(=O)N[C@H](Cc1ccccc1)C(=O)N[C@H](CCCCN)C(=O)N[C@H](Cc1c[nH]c2ccccc12)C(=O)N[C@H](CC(C)C)C(=O)N[C@H](CCCNC(=N)N)C(=O)O [Chain204D] (H-[dR][dR][dL][dI][dW][dR][dR][dF][dK][dW][dL][dR]-OH)",
    "Minimum inhibitory concentration": ">128"
  }
]

Entry CC(C)C[C@@H](NC(=O)[C@H](N)CCCNC(=N)N)C(=O)N[C@H](CCCCN)C(=O)N[C@H](CCCNC(=N)N)C(=O)N[C@H](Cc1c[nH]c2ccccc12)C(=O)N[C@H](CCCNC(=N)N)C(=O)N[C@H](CC(C)C)C(=O)N[C@H](Cc1ccccc1)C(=O)N[C@H](CCCNC(=N)N)C(=O)N[C@H](CCCCN)C(=O)N[C@H](CCCNC(=N)N)C(=O)O [Chain306D] (H-[dR][dL][dK][dR][dW][dR][dL][dF][dR][dK][dR]-OH) : reported Minimum inhibitory concentration = ?
>128

----------
test system: Pseudomonas aeruginosa (ATCC 27853); experiment: microbe, parasite or virus in culture; assay type: cell-based; conditions: ATCC 27853
Ends that are not written are not given here.
Please respond with reported Minimum inhibitory concentration, Pseudomonas aeruginosa (ATCC 27853) for every item in the list.

Solved entries (count: 5):
[
  {
    "query.sequence": "WRIVQWRKLKR [Chain210]",
    "target.system": "Pseudomonas aeruginosa (ATCC 27853)",
    "readout.value": ">128 µg/mL"
  },
  {
    "query.sequence": "IWKRFRLFKKR [Chain303]",
    "target.system": "Pseudomonas aeruginosa (ATCC 27853)",
    "readout.value": ">128 µg/mL"
  },
  {
    "query.sequence": "KRIVRWRKLKRK [Chain207]",
    "target.system": "Pseudomonas aeruginosa (ATCC 27853)",
    "readout.value": ">128 µg/mL"
  },
  {
    "query.sequence": "KLRLHAKRLRK [Chain103]",
    "target.system": "Pseudomonas aeruginosa (ATCC 27853)",
    "readout.value": ">128 µg/mL"
  },
  {
    "query.sequence": "WWRLHAKKKLW [Chain107]",
    "target.system": "Pseudomonas aeruginosa (ATCC 27853)",
    "readout.value": ">128 µg/mL"
  }
]

Could you tell me Minimum inhibitory concentration, Pseudomonas aeruginosa (ATCC 27853) for each of these sequences? They are listed below.
1. YDKGFGLFKKM [Chain300]
2. KLKKFKLFKKR [Chain312]
3. KRIVRWRTRKR [Chain205]
4. KRIVRWRWRKR [Chain206]
5. WRIVRWRKLKR [Chain209]
6. RRIVKLRWFKR [Chain203]
7. WWRLHAKRKLW [Chain108]

[">128 µg/mL", ">128 µg/mL", ">128 µg/mL", ">128 µg/mL", ">128 µg/mL", ">128 µg/mL", ">128 µg/mL"]

Could you tell me Minimum inhibitory concentration, Pseudomonas aeruginosa (ATCC 27853) for each of these sequences? They are listed below.
1. NRIVQQRTSSR [Chain200]
2. KIRLHRKRLRK [Chain101]
3. KKRLHRKRLRK [Chain102]
4. DCWSAMIRLHAKYNQV [Chain100]

>128 µg/mL
>128 µg/mL
>128 µg/mL
>128 µg/mL

Hello, the source for this data is patent US10457709B2, in case you need it.
